Where do the numbers come from? From PubChem BioAssay.

- protocol-summary: fission yeast growth modulation, primary screen, strain 972, OD600, 24 h, no modulator (AID 1090);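 also: basal condition with compound alone and no growth modifier present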
- condition-set: S. pombe 972 growth, higher = more signal, called active from +8 up or from −8 down
quantity-measured: z-score

compound | readout-number
NCCCCCCNC(=O)[C@H]1C[C@H]2C(=O)N[C@@H](Cc3ccccc3)C(=O)N2[C@H]1c1ccc(O)cc1 | -0.599
Cc1c(NC(=O)/C(C#N)=C/C=C/c2ccc(N(C)C)cc2)c(=O)n(-c2ccccc2)n1C | -0.544
COCCOC(=O)N1C(=O)[C@@]2(c3cc(C#Cc4ccc(OC)cc4)ccc31)[C@H](C(=O)N1CCN(c3ncccn3)CC1)[C@H]1C(=O)O[C@H](c3ccccc3)[C@H](c3ccccc3)N1[C@@H]2c1ccccc1OCCO | 2.27
C=CCN1C(=O)[C@]2(CC=C)N=C(c3ccc(OCCCO)cc3)O[C@@H]2c2ccccc21 | -2.79
CC(C)c1ccc(NN2C(C(O)c3ccco3)C=CC3C(=O)N(c4ccccc4)C(=O)C32)cc1 (configuration not stated) | 0.431
CN(C)CCCNC(=O)[C@@H]1c2ccccc2C(=O)N(CC23CC4CC(CC(C4)C2)C3)[C@H]1c1ccc(CO)cc1 | -7.98
C=CCC(OC(C)=O)[C@@H]1[C@@H](N(Cc2cc3ccccc3o2)C(=O)c2ccc(C)cc2)c2cc(OCCCO)ccc2N1C(=O)Cc1ccc2ccccc2c1 (some centres not stated) | -0.423

* * *

Below is a list of entries, each paired with its recorded z-score value.
- protocol-summary: splicing luciferase reporter signal modulators, primary screen, spliceosome inhibition project, cell-based, HEK293, splice +/- reporter (AID 1101);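 also: HEK293 cells carrying a splicing-competent luciferase reporter gene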
- condition-set: luminescence, 24 h, higher = more signal, called active from +8 up or from −8 down
Calls of active or inactive are those of the source.
quantity-measured: z-score

compound | result
NC(=O)N1C(=O)C2C(C1=O)C1C=C(CCCO)C2C(c2cccs2)N1Cc1cc2c(cc1Br)OCO2 (stereo unspecified) | 0.701 (inactive)
C=CCNC(=O)[C@@H]1[C@H]2C(=O)O[C@H](c3ccccc3)[C@H](c3ccccc3)N2[C@H](c2ccc(OCCO)cc2)[C@@]12C(=O)N(C(=O)OCCOC)c1ccc(C#CC3=CCCCC3)cc12 | -0.57 (inactive)
C=CCN1C(=O)[C@@]2(O[C@@H](CCn3cc([C@H](O)c4ccccc4)nn3)[C@H]([Si](C)(C)c3ccc(OC)cc3)[C@H]2C)c2ccccc21 | -0.56 (inactive)
COCCOC(=O)N1C(=O)[C@@]2(c3cc(C#CCC(C(=O)OC)C(=O)OC)ccc31)[C@H](c1ccc(OCCO)cc1)N1[C@H](c3ccccc3)[C@H](c3ccccc3)OC(=O)[C@H]1[C@@H]2C(=O)N1CCN(c2ncccn2)CC1 | -0.0387 (inactive)
COc1ccccc1CN1C(=O)c2ccccc2[C@](Cc2ccccc2I)(C(=O)NC(C)C)[C@@H]1c1ccc(CO)cc1 | -0.691 (inactive)
COc1ccc([Si](C)(C)[C@@H]2[C@@H](CCO)O[C@]3(C(=O)N(Cc4cccc(N5C(=O)c6cccc7cccc5c67)c4)c4ccccc43)[C@H]2C)cc1 | -0.665 (inactive)

* * *

- System: Neuregulin-1 EGF-like domain
- protocol-summary: binders of neuregulin-1 EGF-like domain, primary screen, biochemical, small-molecule microarray, 635 nm fluorescence (AID 1081);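 also: binding of the protein to compounds printed on small-molecule microarray slides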
- condition-set: small-molecule microarray binding, higher = more signal
quantity-measured: composite z-score

substance-smiles | readout-number
[N-]=[N+]=Nc1ccccc1C[C@@]1(C(=O)O)N=C(c2ccc(OCCCO)cc2)O[C@@H]1c1ccccc1 | 1.24
C=CCN1C(=O)[C@@]2(O[C@@H](CCn3cc([C@H](O)c4ccccc4)nn3)[C@H]([Si](C)(C)c3ccc(OC)cc3)[C@H]2C)c2ccccc21 | 1.01
COc1cc2c(cc1OC)CN(C(=O)[C@H]1[C@@H]3C(=O)O[C@@H](c4ccccc4)[C@@H](c4ccccc4)N3[C@@H](c3ccc(OCCO)cc3)[C@]13C(=O)Nc1ccc(C#CCCO)cc13)CC2 | 0.874

* * *

- System: XIP peptide (Xip251-270)
- protocol-summary: small-molecule binders of XIP peptide, primary screen, biochemical, small-molecule microarray, fluorescence 635/667 nm, 0.5 µg/mL protein (AID 1183)
- condition-set: small-molecule microarray binding, fluorescence 635 nm; higher = more signal
quantity-measured: composite z-score

compound | result
C#CCNC(=O)[C@H](Cc1ccccc1)NC(=O)[C@@H](N=[N+]=[N-])C(C)C | 0.262
Cc1ccc(S[C@]2(C(=O)NC(C)C)CC(=O)N(Cc3ccccc3C(F)(F)F)[C@@H]2c2ccc(CO)cc2I)cc1 | 0.582
C=C[C@@H](COC(C)=O)NS(=O)(=O)c1ccc(Br)cc1 | 0.113
CCCCN1CC=CC23O[C@@H]4C=CCOC(=O)[C@@H]4[C@H]2C(=O)N(CCCO)[C@@H]3C1=O (stereo partly drawn) | -0.374
C=C[C@@H](C)[C@H](OC(=O)Nc1ccc(SC)cc1)c1ccc(OCCO)cc1 | -0.0795
CCOC(=O)C[C@H]1[C@H](OC(=O)c2ccc(-c3ccccc3)cc2)[C@@H](NC(=O)c2ccc3ccccc3c2)c2cc(OCCCO)ccc2N1C(=O)c1ccc2ccccc2n1 | 0.338
CN1C2C=C(CCCO)C(C3C(=O)N(C(N)=O)C(=O)C32)C1c1cccs1 (stereo not drawn) | -0.301
CCOc1cc(C(O)C2C=CC3C(=O)N(C4CCCCC4)C(=O)C3N2Nc2ccc(OC)cc2)ccc1O (stereo not drawn) | 0.486

* * *

Parameter: z-score. Scope: all listed entries.
- protocol-summary: CREB reporter modulators without forskolin, primary screen, cell-based, PC12, CRE-LacZ reporter, unstimulated (AID 1145)
- condition-set: no forskolin, luminescence, 4.5 h, higher = more signal, called active from +8 up or from −8 down

compound | z-score
CN1C2C=C(CCCO)C(C3C(=O)N(C(N)=O)C(=O)C32)C1c1cccs1 (centres undefined) | -1.09
C=CCC(OC(C)=O)[C@@H]1[C@@H](N(Cc2cc3ccccc3o2)C(=O)c2ccc(C)cc2)c2cc(OCCCO)ccc2N1C(=O)Cc1ccc2ccccc2c1 (some centres undefined) | 2.37
COCCOC(=O)N1C(=O)[C@@]2(c3cc(C#CC4(O)CCCCCC4)ccc31)[C@H](C(N)=O)[C@H]1C(=O)O[C@H](c3ccccc3)[C@H](c3ccccc3)N1[C@@H]2c1ccc(O)cc1 | 2.25
CCOC(=CC(=O)OC)CC(O)c1cccc(Cl)c1 (centres undefined) | 0.584

* * *

- protocol-summary: basal S. cerevisiae growth modulation, no modifier, primary screen, OD600, strain BY4716, 24 h, basal condition (AID 1173)
- condition-set: OD600, 24 h, higher = more signal, called active from +8 up or from −8 down
This listing pairs compounds with measured z-score.
quantity-measured: z-score

compound | quantity-measured | readout-number
NC(=O)NCC#Cc1ccc2c(c1)[C@]1(C(=O)N2)[C@H](C(=O)O)[C@H]2C(=O)O[C@H](c3ccccc3)[C@H](c3ccccc3)N2[C@@H]1c1ccccc1OCCO | z-score | -1.81
CO[C@H]1O[C@H](CO)[C@@H](OC(=O)Nc2ccc(Oc3ccccc3)cc2)[C@H](OC(=O)Nc2ccccc2-c2ccccc2)[C@@H]1OC(=O)Nc1ccccc1-c1ccccc1 | z-score | 1.01
CC=CC(O)C1C=CC2C(=O)N(C)C(=O)C2N1Nc1ccc([N+](=O)[O-])cc1[N+](=O)[O-] (stereo not drawn) | z-score | 0.554

* * *

- target-of-assay: Left-right determination factor 2 (Homo sapiens)
- protocol-summary: LEFTY2 binders on small-molecule microarrays, primary screen, biochemical, small-molecule microarray, 635 nm fluorescence scan (AID 1110)
- condition-set: LEFTY2 binding, higher = more signal
I would appreciate it if you labelled entries Met when composite z-score is -0.3 or higher, otherwise Not met.

compound | target-of-assay | discrete-label
CCCC=C(CCC)[C@@H](NP(=O)(c1ccccc1)c1ccccc1)c1ccc(C(F)(F)F)cc1 | Left-right determination factor 2 (Homo sapiens) | Met
CN1C(=O)C2C=CC(C(O)C3CCCCC3)N(N3CCCCC3)C2C1=O (stereo unspecified) | Left-right determination factor 2 (Homo sapiens) | Met
C=C[C@@H](C)[C@H](OC(=O)Nc1ccc(SC)cc1)c1ccc(OCCO)cc1 | Left-right determination factor 2 (Homo sapiens) | Not met
Cc1ccc(S[C@]2(C(=O)NCC(C)C)CC(=O)N(Cc3ccccc3Cl)[C@@H]2c2ccc(CO)cc2I)cc1 | Left-right determination factor 2 (Homo sapiens) | Not met
COc1ccc(C(O)C2C=CC3C(=O)N(C)C(=O)C3N2N2CCCCC2)cc1 (stereo unspecified) | Left-right determination factor 2 (Homo sapiens) | Met
CCOc1cc(C(O)C2C=CC3C(=O)N(C4CCCCC4)C(=O)C3N2Nc2ccc(OC)cc2)ccc1O (stereo unspecified) | Left-right determination factor 2 (Homo sapiens) | Met
CC(C)C[C@@H]1NC(=O)[C@H]2C[C@@H](C(=O)NCCCCCC[N+](C)(C)C)[C@@H](c3cccc(OCCO)c3)N2C1=O | Left-right determination factor 2 (Homo sapiens) | Met
C=CCN1C(=O)[C@@]2(O[C@@H](CCn3cc([C@H](O)c4ccccc4)nn3)[C@H]([Si](C)(C)c3ccc(OC)cc3)[C@H]2C)c2ccccc21 | Left-right determination factor 2 (Homo sapiens) | Met
CC(C)C(=C=CC[C@@H](O)c1ccccc1OCCO)C[C@@H](O)COCc1ccccc1 | Left-right determination factor 2 (Homo sapiens) | Met
CC(C)N1CC=CC23O[C@@H]4C=CCOC(=O)[C@@H]4[C@H]2C(=O)N(C(C)CO)[C@@H]3C1=O (stereo partly specified) | Left-right determination factor 2 (Homo sapiens) | Not met
COCCCNC(=O)[C@@]1(Sc2ccc(C)cc2)CC(=O)N(Cc2cc(C(F)(F)F)cc(C(F)(F)F)c2)[C@@H]1c1ccc(CO)cc1 | Left-right determination factor 2 (Homo sapiens) | Met
CN(C)CCCNC(=O)[C@@H]1c2ccccc2C(=O)N(CC23CC4CC(CC(C4)C2)C3)[C@H]1c1ccc(CO)cc1 | Left-right determination factor 2 (Homo sapiens) | Met
C[C@]1(C(=O)O)c2ccccc2C(=O)N(Cc2ccccc2)[C@H]1c1ccc(CO)cc1 | Left-right determination factor 2 (Homo sapiens) | Not met
COC(=O)[C@@]1(Cc2ccc(OC)cc2)[C@H]2c3cc(C(=O)N(C)C)n(Cc4ccccc4)c3C[C@H]2CN1C(=O)c1ccccc1 | Left-right determination factor 2 (Homo sapiens) | Not met
O=C1NC(=O)C2C1C=CC(C(O)c1cc(C(F)(F)F)cc(C(F)(F)F)c1)N2Nc1ccc(Cl)cc1Cl (stereo unspecified) | Left-right determination factor 2 (Homo sapiens) | Met
COC(=O)c1c(CC[C@@H](CO)NC(=O)N[C@H](Cn2cc(-c3ccccc3C)nn2)C(C)C)oc(C(C)=O)c1C(=O)OC | Left-right determination factor 2 (Homo sapiens) | Not met
